Measured On: HLA-A*68:01
Assay Method Text: IEDB peptide-MHC binding, purified MHC/competitive/radioactivity; filed as Kd, often an IC50 or EC50 that approximates it; bounds were set here for any values at or beyond the usual limits of such assays
Measurement Conditions: source organism: SARS coronavirus Tor2
Would you mind classing the entries by Kd? Ranges: bottom end (below 70 nM), midrange (70 nM to below 2000 nM), top end (2000 nM or more)

Q) GET /class?item= `KQIRSAAKK`
A) midrange

Q) GET /class?item= `LILCFTIKR`
A) midrange

Q) GET /class?item= `TQSRDLEDFK`
A) top end

Q) GET /class?item= `KQMYKTPTLK`
A) top end

Q) GET /class?item= `VLDMCAALK`
A) top end

Q) GET /class?item= `GFAAYNRYR`
A) top end

Q) GET /class?item= `SAAAYFVGY`
A) midrange

Q) GET /class?item= `QLPQGTTLPK`
A) midrange

Q) GET /class?item= `AVVCYNSNY`
A) top end

Q) GET /class?item= `LLRALRLTK`
A) top end

Q) GET /class?item= `AFSLDVSEK`
A) top end

Q) GET /class?item= `WVLAYMLFTK`
A) midrange

Q) GET /class?item= `CLAVHECFVK`
A) top end

Q) GET /class?item= `SLLKTHRMCK`
A) top end

Q) GET /class?item= `KVAGFAKFLK`
A) bottom end

Q) GET /class?item= `VAFELWAKR`
A) bottom end

Q) GET /class?item= `GVAPGTAVLR`
A) bottom end

Q) GET /class?item= `IISDMYDPR`
A) bottom end

Q) GET /class?item= `KFYGPFVDR`
A) top end

Q) GET /class?item= `SICSTMTNR`
A) bottom end

====

Measured On: HLA-B*07:02
Assay Method Text: IEDB peptide-MHC binding, purified MHC/direct/fluorescence; filed as Kd, often an IC50 or EC50 that approximates it; bounds were set here for any values at or beyond the usual limits of such assays
Measurement Conditions: source organism: Salmonella enterica subsp. enterica serovar Typhimurium
pKd: −log10 of the molar value.
Reported Property: pKd

Value sought: pKd, system HLA-B*07:02, item `YSDIFNNVL` . Result: ≤ 4.70

====

Measured On: HLA-A*02:01
Assay Method Text: IEDB peptide-MHC binding, purified MHC/competitive/fluorescence; bounds were set here for any values at or beyond the usual limits of such assays
Measurement Conditions: source organism: Vaccinia virus
Reported Property: pIC50
In textbook form, pIC50 equals minus log to base ten of the concentration in mol/L.

The sequence identified as `AVDRGCLRI` registered its pIC50 at 5.45

====

Measured On: HLA-A*03:01
Assay Method Text: IEDB peptide-MHC binding, purified MHC/direct/fluorescence; filed as Kd, often an IC50 or EC50 that approximates it; bounds were set here for any values at or beyond the usual limits of such assays
Measurement Conditions: source organism: Cryptosporidium parvum Iowa II
pKd: −log10 of the molar value.
Reported Property: pKd

The sequence identified as `TVFRNQNRV` registered its pKd at ≤ 4.70

====

Measured On: HLA-A*29:02
Assay Method Text: IEDB peptide-MHC binding, purified MHC/competitive/radioactivity; filed as Kd, often an IC50 or EC50 that approximates it; bounds were set here for any values at or beyond the usual limits of such assays
Measurement Conditions: source organism: Lassa virus Josiah
I'd appreciate it if you could supply Kd values for the items below.
Use µM as the unit, but write only the number.

The sequence identified as `DIMGIPYCNY` registered its Kd at 0.105

The sequence identified as `CWLVSNGSY` registered its Kd at 0.543

====

Measured On: HLA-A*69:01
Assay Method Text: IEDB peptide-MHC binding, purified MHC/direct/fluorescence; filed as Kd, often an IC50 or EC50 that approximates it; bounds were set here for any values at or beyond the usual limits of such assays
Measurement Conditions: source organism: Camelpox virus M-96
pKd: −log10 of the molar value.
Reported Property: pKd

Value sought: pKd, system HLA-A*69:01, item `ATNDGLIKK` . Result: ≤ 4.70

Value sought: pKd, system HLA-A*69:01, item `LTFLHTLYK` . Result: ≤ 4.70

Value sought: pKd, system HLA-A*69:01, item `FVHTLLKTY` . Result: ≤ 4.70

Value sought: pKd, system HLA-A*69:01, item `RVYNNTARY` . Result: ≤ 4.70

====

Measured On: HLA-A*02:11
Assay Method Text: IEDB peptide-MHC binding, purified MHC/direct/fluorescence; filed as Kd, often an IC50 or EC50 that approximates it; bounds were set here for any values at or beyond the usual limits of such assays
Measurement Conditions: source organism: Salmonella enterica subsp. enterica serovar Berta
Reported Property: Kd

The sequence identified as `HQDDGQPRL` registered its Kd at ≥ 20 µM

====

Measured On: HLA-A*30:02
Assay Method Text: IEDB peptide-MHC binding, purified MHC/competitive/fluorescence; filed as Kd, often an IC50 or EC50 that approximates it; bounds were set here for any values at or beyond the usual limits of such assays
Measurement Conditions: source organism: Burkholderia mallei SAVP1
pKd: −log10 of the molar value.
Reported Property: pKd

The sequence identified as `NVMDPMHGA` registered its pKd at ≤ 5.30

====

Measured On: HLA-A*11:01
Assay Method Text: IEDB peptide-MHC binding, purified MHC/competitive/radioactivity; filed as Kd, often an IC50 or EC50 that approximates it; bounds were set here for any values at or beyond the usual limits of such assays
Measurement Conditions: source organism: Mammarenavirus brazilense
Reported Property: Kd (µM)
Use µM as the unit, but write only the number.

Value sought: Kd, system HLA-A*11:01, item `RALKYDFNH` . Result: 4.37

====

Measured On: HLA-B*44:03
Assay Method Text: IEDB peptide-MHC binding, purified MHC/competitive/radioactivity; filed as Kd, often an IC50 or EC50 that approximates it; bounds were set here for any values at or beyond the usual limits of such assays
Measurement Conditions: source organism: Dengue virus 4 Philippines/H241/1956
I'd appreciate it if you could supply pKd values for the items below.
In textbook form, pKd equals minus log to base ten of the concentration in mol/L.

The sequence identified as `SETFSMGLLC` registered its pKd at 7.08

The sequence identified as `TEIASLPTY` registered its pKd at 7.73

====

I'd appreciate it if you could supply Kd values for the items below.
Measured On: HLA-A*03:01
Assay Method Text: IEDB peptide-MHC binding, purified MHC/direct/fluorescence; filed as Kd, often an IC50 or EC50 that approximates it; bounds were set here for any values at or beyond the usual limits of such assays
Measurement Conditions: source organism: Vibrio parahaemolyticus

Value sought: Kd, system HLA-A*03:01, item `EEDLPVTWR` . Result: ≥ 20 µM

Value sought: Kd, system HLA-A*03:01, item `ALSMGINTV` . Result: ≥ 20 µM

Value sought: Kd, system HLA-A*03:01, item `GRNSRFPDK` . Result: ≥ 20 µM

====

Measured On: HLA-B*53:01
Assay Method Text: IEDB peptide-MHC binding, purified MHC/competitive/radioactivity; filed as Kd, often an IC50 or EC50 that approximates it; bounds were set here for any values at or beyond the usual limits of such assays
Measurement Conditions: source organism: Vaccinia virus WR
Reported Property: Kd (nM)
Use nM as the unit, but write only the number.

The sequence identified as `CTFMIITSTK` registered its Kd at 1910

The sequence identified as `PPCQCTVQEF` registered its Kd at 5150

The sequence identified as `MPTDMLKLF` registered its Kd at 0.141

The sequence identified as `LPEETNIGCA` registered its Kd at 2080

The sequence identified as `QPEKEIPEY` registered its Kd at 45.2

The sequence identified as `KPIMSMGDII` registered its Kd at 90.7

The sequence identified as `VPEFAKQYV` registered its Kd at 5150

The sequence identified as `IPSTVKTNLY` registered its Kd at 213

The sequence identified as `IPIGMQFDKV` registered its Kd at 590

The sequence identified as `TPLISFFGLF` registered its Kd at 31.1

The sequence identified as `STCYVFGLY` registered its Kd at 9930

====

Measured On: HLA-B*18:01
Assay Method Text: IEDB peptide-MHC binding, purified MHC/direct/fluorescence; filed as Kd, often an IC50 or EC50 that approximates it; bounds were set here for any values at or beyond the usual limits of such assays
Measurement Conditions: source organism: Giardia lamblia ATCC 50803
Reported Property: Kd

The sequence identified as `YLDMVLAFL` registered its Kd at ≥ 20 µM

====

Measured On: HLA-A*26:01
Assay Method Text: IEDB peptide-MHC binding, purified MHC/competitive/radioactivity; filed as Kd, often an IC50 or EC50 that approximates it; bounds were set here for any values at or beyond the usual limits of such assays
Measurement Conditions: source organism: SARS coronavirus Tor2
Reported Property: log10(Kd) (log10 of the value in µM)
Scale type: logarithmic (base 10). Underlying Kd unit: µM.

The sequence identified as `TAEDMLNPNY` registered its log10(Kd) at 1.25

The sequence identified as `VTPSGTWLTY` registered its log10(Kd) at -0.41

The sequence identified as `FTILCLVPAY` registered its log10(Kd) at -1.97

The sequence identified as `LSFKELLVY` registered its log10(Kd) at 1.04

The sequence identified as `SAAAYFVGY` registered its log10(Kd) at -1.07

The sequence identified as `PTITQMNLKY` registered its log10(Kd) at -0.08

The sequence identified as `AFNCTFEYI` registered its log10(Kd) at -1.06

The sequence identified as `WFITQRNFF` registered its log10(Kd) at -0.76

The sequence identified as `GPDDQIGYY` registered its log10(Kd) at 1.04
